SUBJECT_OF_TEST: 5-hydroxytryptamine receptor 2A (Mus musculus) (UniProt P35363)
Sequence (P35363 whole entry, looked up): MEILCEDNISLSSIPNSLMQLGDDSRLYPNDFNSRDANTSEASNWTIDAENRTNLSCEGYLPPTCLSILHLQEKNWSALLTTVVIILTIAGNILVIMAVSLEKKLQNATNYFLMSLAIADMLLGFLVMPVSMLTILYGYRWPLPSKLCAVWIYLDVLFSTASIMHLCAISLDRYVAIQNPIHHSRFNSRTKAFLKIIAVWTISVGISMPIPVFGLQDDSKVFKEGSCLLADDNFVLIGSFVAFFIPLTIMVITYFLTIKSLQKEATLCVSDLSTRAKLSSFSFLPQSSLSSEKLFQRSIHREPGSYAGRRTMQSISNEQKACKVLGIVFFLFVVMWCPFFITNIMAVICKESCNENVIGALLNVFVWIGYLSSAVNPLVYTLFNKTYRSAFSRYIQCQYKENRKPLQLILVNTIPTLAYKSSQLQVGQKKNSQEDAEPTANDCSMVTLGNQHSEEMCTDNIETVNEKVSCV
PROTOCOL_NOTES: mouse HTR2A agonist potency, beta-arrestin, late-stage follow-up, cell-based, luminescence, CHO-K1, powder samples, dose response (AID 720643)
RUN_CONDITIONS: CHO-K1 mHTR2A beta-arrestin PathHunter luminescence
Active and inactive are the calls of the source.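 Rule for the calls: active = EC50 of 10 µM or lower; inactive = EC50 above 10 µM.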
Outcomes: yes for active, no for inactive

# MOLECULE, CLASS_ASSIGNMENT
records = [
    ("CCCN(CCC)C1CCc2cccc(O)c2C1 (centres undefined)", "no"),
    ("Oc1ccc(CN2CCN(c3ncccn3)CC2)cc1", "no"),
    ("COc1ccc(CN2CCN(c3ncccn3)CC2)c(OC)c1", "no"),
    ("CC1CC(C)CN(CCOc2cccc(Cl)c2Cl)C1 (centres undefined)", "no"),
    ("CC1(C)C(C=C(Cl)Cl)C1C(=O)N1CCN(Cc2ccccc2)CC1 (centres undefined)", "no"),
    ("COc1ccc(CN2CCN(c3ncccn3)CC2)c(C)c1C", "no"),
    ("c1ccc(CN2CCN(c3ncccn3)CC2)cc1", "no"),
    ("Clc1ccc(CN2CCN(c3ncccn3)CC2)cc1Cl", "no"),
    ("CCc1ccc(CN2CCN(C(=O)c3ccco3)CC2)cc1", "no"),
    ("C=CCN1CCc2nc(N)sc2CC1", "no"),
    ("O=C(c1ccco1)N1CCN(Cc2ccc(Cl)cc2)CC1", "no"),
    ("CCCN1CCC[C@H](c2cccc(O)c2)C1", "no"),
    ("c1ccc(COc2ccc(CN3CCN(c4ccccn4)CC3)cc2)cc1", "no"),
    ("c1ccc(N2CCN(Cc3ccsc3)CC2)nc1", "no"),
    ("Brc1cccc(CN2CCN(c3ncccn3)CC2)c1", "no"),
    ("COc1ccccc1C(=O)NCCN1CCN(c2ccccc2)CC1", "no"),
    ("CCn1c(=O)cc(SCC(=O)NCCCN2CCN(c3ccccc3F)CC2)c2ccccc21", "no"),
    ("Cn1cc(C(F)(F)F)nc1-c1ccc(OCC(O)CNCCOc2ccc(O)c(C(N)=O)c2)cc1 (centres undefined)", "no"),
    ("NC1CCc2cc(O)c(O)cc2C1 (centres undefined)", "no"),
    ("COc1cccc(OCC(O)CN2CCN(c3ccccn3)CC2)c1 (centres undefined)", "no"),
    ("CCOC(=O)C1CCN(Cc2cccc(Oc3ccc(Cl)cc3)c2)CC1", "no"),
    ("Fc1ccc(F)c(CN2CCN(c3ncccn3)CC2)c1", "no"),
    ("CC(=O)N1CCc2cc(C(=O)CN3CCN(c4cccc(Cl)c4)CC3)ccc21", "no"),
    ("Clc1ccccc1CN1CCN(c2ncccn2)CC1", "no"),
    ("COC(=O)C1=C(Cn2cnc3ccccc32)NC(=O)NC1c1cc(C)ccc1C (centres undefined)", "yes"),
    ("COc1cc(CN2CCN(c3ncccn3)CC2)cc(OC)c1", "no"),
    ("COc1ccc(CC2(CO)CCN(Cc3cc4ccccc4o3)CC2)cc1", "no"),
    ("Fc1ccccc1CN1CCN(c2ncccn2)CC1", "no"),
    ("COc1ccc(CN2CCN(C(=O)c3ccco3)CC2)cc1OCc1ccccc1", "no"),
]
